Target: GST-CIB1 : F-scrambled peptide (Homo sapiens, UniProt Q99828)
Construct: made in house; host or cells: BL-21 plus RIL cells (E. coli)
Assay: FP scrambled-peptide counter screen, 1536-well format
Format: binding
Conditions: scrambled-peptide counterscreen; read-out: COUNTERSCREEN IC50
Here, each record is paired with measured pIC50 data.
The read-out pIC50 is expressed as -log10 of concentration in moles per litre.

Req: Which pIC50 reading was recorded for the compound Cc1ccc(-c2cc(-c3nn(-c4nc(C(=O)O)cs4)c(CC4CC4)c3Cc3ccc(S(N)(=O)=O)c(F)c3)ccc2F)o1 ?
Resp: 4.10

###

Biological target: CIB1 and αIIb interaction (CIB1-GST : F-αIIb peptide) (Homo sapiens)
Construct: made in house; host or cells: BL-21 plus RIL cells (E. coli)
Sequence (Q99828 1-191): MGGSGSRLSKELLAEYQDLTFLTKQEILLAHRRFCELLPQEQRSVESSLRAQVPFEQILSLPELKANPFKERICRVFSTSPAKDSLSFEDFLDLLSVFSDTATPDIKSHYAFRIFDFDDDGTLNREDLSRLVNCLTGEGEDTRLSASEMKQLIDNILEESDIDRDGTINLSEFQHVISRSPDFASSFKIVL
Assay: FP assay, 1536-well qHTS format (primary and confirmatory screen)
Type: binding
Conditions: confirmatory screen; negative = inhibition
Here, each record is paired with measured CONFIRMATORY SCREEN Efficacy (%) data.
Give your result in % as a bare value.

1) COc1ccc(C(=O)Nc2nc(-c3ccccc3)cs2)c(NS(=O)(=O)c2ccc(C)cc2)c1.O=C(O)C(F)(F)F = -60
2) N#Cc1cnc(NS(=O)(=O)c2ccc(NC(=O)Cc3ccc(Cl)c(Cl)c3)cc2)s1.O=C(O)C(F)(F)F = -48

Req: Give the reported CONFIRMATORY SCREEN Efficacy (%) for O=C1C=CC(=O)N1c1cccc(Br)c1 (system: CIB1 and αIIb interaction (CIB1-GST : F-αIIb peptide) (Homo sapiens)).
Resp: -38

Req: Give the reported CONFIRMATORY SCREEN Efficacy (%) for O=C(O)C(F)(F)F.O=S(=O)(Nc1nc2n(n1)C(c1ccccc1)C=C(c1ccc(Cl)cc1)N2)c1ccccc1 (stereo not shown) (system: CIB1 and αIIb interaction (CIB1-GST : F-αIIb peptide) (Homo sapiens)).
Resp: -81

###

Biological target: GST-CIB1 : F-scrambled peptide (Homo sapiens)
Construct: made in house; host or cells: BL-21 plus RIL cells (E. coli)
Sequence (Q99828 1-191): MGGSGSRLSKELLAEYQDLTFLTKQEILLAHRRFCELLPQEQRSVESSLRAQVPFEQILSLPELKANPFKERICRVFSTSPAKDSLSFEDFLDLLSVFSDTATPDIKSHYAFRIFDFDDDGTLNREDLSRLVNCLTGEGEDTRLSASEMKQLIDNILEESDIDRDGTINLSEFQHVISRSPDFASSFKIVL
Test: FP scrambled-peptide counter screen, 384-well format
Format: binding
Conditions: F-scrambled peptide; read-out: 384-well COUNTERSCREEN IC50
pIC50: −log10 of the molar value.
Here, each record is paired with measured pIC50 data.

See these solved cases before continuing.
1. CC(=O)N1CCN(c2ccc(OCc3nn(C)c(C)c3-c3cccc4c(CCCOc5cccc6ccccc56)c(C(=O)O)n(Cc5cccnc5)c34)cc2)CC1 = < 3.92
2. Oc1c(Cl)cc(Cl)c(Cl)c1Cc1c(O)c(Cl)cc(Cl)c1Cl = 4.50

We now examine a further molecule.
Req: Give the reported pIC50 for Cc1cc(S(=O)(=O)Nc2cnccc2C(=O)Nc2nc(-c3ccccc3)cs2)c(C)o1.O=C(O)C(F)(F)F (system: GST-CIB1 : F-scrambled peptide (Homo sapiens)).
Resp: < 3.92
